target: erk1 (Homo sapiens, UniProt P27361)
Sequence (P27361 whole entry): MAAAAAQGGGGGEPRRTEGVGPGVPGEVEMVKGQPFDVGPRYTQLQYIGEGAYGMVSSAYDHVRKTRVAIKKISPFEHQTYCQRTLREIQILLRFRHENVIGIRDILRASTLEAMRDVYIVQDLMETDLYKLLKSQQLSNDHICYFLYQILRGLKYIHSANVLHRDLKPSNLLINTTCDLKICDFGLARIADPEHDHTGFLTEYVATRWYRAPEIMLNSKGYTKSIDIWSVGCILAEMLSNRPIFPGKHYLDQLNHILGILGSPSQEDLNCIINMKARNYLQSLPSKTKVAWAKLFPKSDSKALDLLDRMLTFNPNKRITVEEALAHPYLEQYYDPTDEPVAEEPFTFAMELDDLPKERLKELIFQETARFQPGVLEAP
property: IC50 (µM)

>>> measured_result("CC(C)[C@H](CO)Nc1nc(Nc2cccc(Cl)c2)c2ncn(C(C)C)c2n1")
9

====

target: UniProt:P24723; experiment: purified kinase assay, Protein kinase C (Table 1 r21); details: Table 1 r21, isoform symbol not given
Sequence (P24723 whole entry, canonical isoform): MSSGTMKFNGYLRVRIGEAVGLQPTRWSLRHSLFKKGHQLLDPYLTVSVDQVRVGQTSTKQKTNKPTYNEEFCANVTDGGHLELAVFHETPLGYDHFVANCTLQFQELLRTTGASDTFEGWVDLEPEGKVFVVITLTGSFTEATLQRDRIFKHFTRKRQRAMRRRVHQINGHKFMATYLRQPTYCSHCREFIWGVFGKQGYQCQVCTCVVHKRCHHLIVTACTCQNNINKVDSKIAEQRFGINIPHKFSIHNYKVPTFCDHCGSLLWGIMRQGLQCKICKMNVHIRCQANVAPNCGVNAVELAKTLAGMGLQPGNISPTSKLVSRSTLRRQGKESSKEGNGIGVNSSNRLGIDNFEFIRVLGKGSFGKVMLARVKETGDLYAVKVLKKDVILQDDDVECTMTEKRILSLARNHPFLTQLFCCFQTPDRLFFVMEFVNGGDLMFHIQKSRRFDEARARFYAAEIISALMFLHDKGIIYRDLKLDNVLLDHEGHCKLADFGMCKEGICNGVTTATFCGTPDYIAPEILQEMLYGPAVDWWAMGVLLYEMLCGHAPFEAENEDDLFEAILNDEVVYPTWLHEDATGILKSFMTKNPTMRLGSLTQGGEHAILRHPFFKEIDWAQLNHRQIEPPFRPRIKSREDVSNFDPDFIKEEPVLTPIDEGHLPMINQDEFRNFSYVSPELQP
property: IC50

>>> measured_result("CC(C)[C@H](CO)Nc1nc(Nc2cccc(Cl)c2)c2ncn(C(C)C)c2n1 [purvalanol A]")
"> 100 µM"

====

target: cdc2-cyclin B; experiment: purified kinase phosphorylation assay, cdc2-cyclin B
property: IC50 (nM)

>>> measured_result("CC(C)n1cnc2c(Nc3cccc(Cl)c3)nc(NCCO)nc21 [Compound 52]")
340

====

molecular target: cdk2-cyclin A (Homo sapiens)
property: IC50

>>> measured_result("CC(C)[C@H](CO)Nc1nc(Nc2cccc(Cl)c2)c2ncn(C(C)C)c2n1")
"70 nM"

====

target: Pho85p (Saccharomyces cerevisiae, UniProt P17157)
Sequence (P17157 whole entry): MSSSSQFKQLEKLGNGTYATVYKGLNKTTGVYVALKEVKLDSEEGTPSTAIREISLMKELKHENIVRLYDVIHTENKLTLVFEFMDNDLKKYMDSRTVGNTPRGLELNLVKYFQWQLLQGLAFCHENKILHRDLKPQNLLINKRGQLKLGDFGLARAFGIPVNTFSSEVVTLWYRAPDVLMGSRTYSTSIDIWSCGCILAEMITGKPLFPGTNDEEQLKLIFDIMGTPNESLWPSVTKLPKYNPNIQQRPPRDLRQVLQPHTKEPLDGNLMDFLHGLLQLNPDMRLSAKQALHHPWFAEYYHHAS
pIC50: −log10 of the molar value.
property: pIC50

>>> measured_result("CC(C)n1cnc2c(Nc3cccc(Cl)c3)nc(NCCO)nc21")
5.70

====

Target: Kin28p (Saccharomyces cerevisiae, UniProt P06242)
Sequence (P06242 1-306): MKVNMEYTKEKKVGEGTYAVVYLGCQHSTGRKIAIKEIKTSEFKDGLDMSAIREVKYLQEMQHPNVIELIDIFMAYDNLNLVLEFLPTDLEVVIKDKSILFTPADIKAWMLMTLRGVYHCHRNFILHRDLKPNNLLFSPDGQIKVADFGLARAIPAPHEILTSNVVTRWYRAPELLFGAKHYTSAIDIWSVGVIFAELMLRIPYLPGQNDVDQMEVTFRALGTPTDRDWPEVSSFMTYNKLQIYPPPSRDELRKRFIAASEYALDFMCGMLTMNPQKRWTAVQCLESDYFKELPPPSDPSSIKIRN
Sequence (P37366 1-393 partner): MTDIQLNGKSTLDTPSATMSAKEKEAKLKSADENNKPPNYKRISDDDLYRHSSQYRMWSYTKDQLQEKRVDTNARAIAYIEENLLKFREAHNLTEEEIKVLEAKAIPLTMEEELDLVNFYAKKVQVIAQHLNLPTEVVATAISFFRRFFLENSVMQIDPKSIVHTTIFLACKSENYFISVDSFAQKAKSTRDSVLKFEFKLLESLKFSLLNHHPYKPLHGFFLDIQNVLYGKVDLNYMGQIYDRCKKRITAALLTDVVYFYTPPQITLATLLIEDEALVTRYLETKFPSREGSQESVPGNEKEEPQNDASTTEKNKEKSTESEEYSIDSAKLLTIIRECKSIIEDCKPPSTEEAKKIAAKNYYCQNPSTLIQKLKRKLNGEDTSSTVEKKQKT
pIC50: −log10 of the molar value.
property: pIC50

>>> measured_result("CC(C)n1cnc2c(Nc3cccc(Cl)c3)nc(NCCO)nc21")
"< 3.30"

====

target: Casein kinase 1; test: purified kinase assay, Casein kinase 1
pIC50: −log10 of the molar value.
In this section we review reported pIC50 values for a set of compounds.
property: pIC50

>>> measured_result("CC(C)[C@H](CO)Nc1nc(Nc2ccc(C(=O)O)c(Cl)c2)c2ncn(C(C)C)c2n1 [purvalanol B]")
"< 5.48"
>>> measured_result("CC(C)[C@H](CO)Nc1nc(Nc2cccc(Cl)c2)c2ncn(C(C)C)c2n1 [purvalanol A]")
"< 5.48"

====

These records show IC50 for Insulin-receptor tyrosine kinase (Homo sapiens).
property: IC50 (µM)

>>> measured_result("CC(C)[C@H](CO)Nc1nc(Nc2ccc(C(=O)O)c(Cl)c2)c2ncn(C(C)C)c2n1")
2.2
>>> measured_result("CC(C)[C@H](CO)Nc1nc(Nc2cccc(Cl)c2)c2ncn(C(C)C)c2n1")
5

====

Target: cdk4-cyclin D1 (Homo sapiens, UniProt P11802)
Sequence (P11802 whole entry): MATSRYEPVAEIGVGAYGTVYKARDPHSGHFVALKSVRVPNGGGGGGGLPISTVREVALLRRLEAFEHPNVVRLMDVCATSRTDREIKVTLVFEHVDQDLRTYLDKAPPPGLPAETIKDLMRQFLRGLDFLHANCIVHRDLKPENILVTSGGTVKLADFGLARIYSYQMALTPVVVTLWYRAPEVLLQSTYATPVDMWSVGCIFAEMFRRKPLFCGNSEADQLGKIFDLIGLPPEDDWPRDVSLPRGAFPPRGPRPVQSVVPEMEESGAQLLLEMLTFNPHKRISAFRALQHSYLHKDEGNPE
Sequence (P24385 whole entry partner): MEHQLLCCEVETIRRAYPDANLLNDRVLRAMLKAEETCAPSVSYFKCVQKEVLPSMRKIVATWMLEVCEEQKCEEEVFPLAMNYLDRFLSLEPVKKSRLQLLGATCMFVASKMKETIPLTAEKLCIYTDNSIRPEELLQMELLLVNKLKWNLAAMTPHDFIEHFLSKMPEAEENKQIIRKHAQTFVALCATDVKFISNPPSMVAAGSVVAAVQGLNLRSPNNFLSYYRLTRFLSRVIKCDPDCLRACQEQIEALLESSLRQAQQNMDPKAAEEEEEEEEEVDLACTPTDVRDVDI
Assay: purified kinase assay, cdk4-cyclin D1
Description: To examine the effects of a range of diverse substituents on the purine ring, we synthesized combinatorial libraries in which the 2, 6, and 9 positions could be varied starting with a 2-flouro-6-chloropurine framework. (FIG. 1A) (2,3). Substitution chemistry was used to install amines at the 2 and 6 positions, and a Mitsunobu reaction (4,5) was used to alkylate the N9 position of the purine core. […]
property: IC50 (nM)

>>> measured_result("CC(C)[C@H](CO)Nc1nc(Nc2cccc(Cl)c2)c2ncn(C(C)C)c2n1 [purvalanol A]")
850

====

biological target: UniProtKB P05129; test: purified kinase assay, Protein kinase C (Table 1 r18); type: biochemical; conditions: Table 1 r18, isoform symbol not given
property: IC50

>>> measured_result("CC(C)[C@H](CO)Nc1nc(Nc2cccc(Cl)c2)c2ncn(C(C)C)c2n1")
"> 10 µM"

====

target: Cdc28p (Saccharomyces cerevisiae, UniProt P00546)
Sequence (P00546 whole entry): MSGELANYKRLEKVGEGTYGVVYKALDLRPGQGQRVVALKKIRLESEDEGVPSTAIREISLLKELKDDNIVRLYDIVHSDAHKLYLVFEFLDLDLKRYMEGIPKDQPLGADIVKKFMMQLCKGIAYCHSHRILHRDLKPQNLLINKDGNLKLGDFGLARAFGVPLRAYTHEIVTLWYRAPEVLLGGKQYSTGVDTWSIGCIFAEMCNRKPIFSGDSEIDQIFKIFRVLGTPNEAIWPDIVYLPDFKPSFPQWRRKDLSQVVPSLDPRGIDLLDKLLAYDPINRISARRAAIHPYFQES
property: IC50 (µM)

>>> measured_result("CC(C)n1cnc2c(Nc3cccc(Cl)c3)nc(NCCO)nc21")
7
